# EXPERIMENT SUMMARY: total protein half-life in vivo (active degradation + dilution); higher = more stable protein
# PROTOCOL CONDITIONS: wild type E. coli NCM3722; growth: N-lim chemostat; doubling time 6 h
PROPERTY LABEL: total protein half-life in vivo (h)
One number for each entry, in h.

*Q* Output total protein half-life in vivo of `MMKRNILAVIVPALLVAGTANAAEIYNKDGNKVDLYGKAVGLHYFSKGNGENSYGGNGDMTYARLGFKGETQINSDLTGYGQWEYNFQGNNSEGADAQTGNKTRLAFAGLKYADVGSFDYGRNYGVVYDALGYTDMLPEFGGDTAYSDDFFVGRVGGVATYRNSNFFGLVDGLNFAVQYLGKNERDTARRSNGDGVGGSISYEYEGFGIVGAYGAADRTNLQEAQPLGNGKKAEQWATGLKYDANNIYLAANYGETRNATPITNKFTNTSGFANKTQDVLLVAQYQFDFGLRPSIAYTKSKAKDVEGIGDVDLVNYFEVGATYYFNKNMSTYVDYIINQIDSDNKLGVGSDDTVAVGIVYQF`
*A* 5.95

###

# EXPERIMENT SUMMARY: total protein half-life in vivo (active degradation + dilution); higher = more stable protein
# PROTOCOL CONDITIONS: wild type E. coli NCM3722; growth: C-lim chemostat; doubling time 6 h
Assign total protein half-life in vivo to each entry below.
Give bare numbers, in h.

# RESIDUE STRING, UNIT, total protein half-life in vivo
rows = [
    ("MQQVFFQETEFLNSVIDYDHKVETENLCLDIAYGTDKNFLFGCGISIASILKYNEGSRLCFHIFTDYFGDDDRKYFDALALQYKTRIKIYLINGDRLRSLPSTKNWTHAIYFRFVIADYFINKAPKVLYLDADIICQGTIEPLINFSFPDDKVAMVVTEGQADWWEKRAHSLGVAGIAKGYFNSGFLLINTAQWAAQQVSARAIAMLNEPEIIKKITHPDQDVLNMLLADKLIFADIKYNTQFSLNYQLKESFINPVTNDTIFIHYIGPTKPWHDWAWDYPVSQAFMEAKNASPWKNTALLKPNNSNQLRYSAKHMLKKHRYLKGFSNYLFYFIEKIKH", "h", 5.41),
]

*Q* Output total protein half-life in vivo of `MKLTTHHLRTGAALLLAGILLAGCDQSSSDAKHIKVGVINGAEQDVAEVAKKVAKEKYGLDVELVGFSGSLLPNDATNHGELDANVFQHRPFLEQDNQAHGYKLVAVGNTFVFPMAGYSKKIKTVAQIKEGATVAIPNDPTNLGRALLLLQKEKLITLKEGKGLLPTALDITDNPRHLQIMELEGAQLPRVLDDPKVDVAIISTTYIQQTGLSPVHDSVFIEDKNSPYVNILVAREDNKNAENVKEFLQSYQSPEVAKAAETIFNGGAVPGW`
*A* 5.49

###

# EXPERIMENT SUMMARY: total protein half-life in vivo (active degradation + dilution); higher = more stable protein
# PROTOCOL CONDITIONS: wild type E. coli NCM3722; growth: C-lim chemostat; doubling time 12 h
PROPERTY LABEL: total protein half-life in vivo (h)
Give bare numbers, in h.

*Q* Output total protein half-life in vivo of `MKLAVYSTKQYDKKYLQQVNESFGFELEFFDFLLTEKTAKTANGCEAVCIFVNDDGSRPVLEELKKHGVKYIALRCAGFNNVDLDAAKELGLKVVRVPAYDPEAVAEHAIGMMMTLNRRIHRAYQRTRDANFSLEGLTGFTMYGKTAGVIGTGKIGVAMLRILKGFGMRLLAFDPYPSAAALELGVEYVDLPTLFSESDVISLHCPLTPENYHLLNEAAFEQMKNGVMIVNTSRGALIDSQAAIEALKNQKIGSLGMDVYENERDLFFEDKSNDVIQDDVFRRLSACHNVLFTGHQAFLTAEALTSISQTTLQNLSNLEKGETCPNELV`
*A* 11.3

###

# EXPERIMENT SUMMARY: total protein half-life in vivo (active degradation + dilution); higher = more stable protein
# PROTOCOL CONDITIONS: wild type E. coli NCM3722; growth: C-lim chemostat; doubling time 12 h
PROPERTY LABEL: total protein half-life in vivo (h)
Answers are plain numbers, in h.

*Q* Output total protein half-life in vivo of MATIKDVAKRANVSTTTVSHVINKTRFVAEETRNAVWAAIKELHYSPSAVARSLKVNHTKSIGLLATSSEAAYFAEIIEAVEKNCFQKGYTLILGNAWNNLEKQRAYLSMMAQKRVDGLLVMCSEYPEPLLAMLEEYRHIPMVVMDWGEAKADFTDAVIDNAFEGGYMAGRYLIERGHREIGVIPGPLERNTGAGRLAGFMKAMEEAMIKVPESWIVQGDFEPESGYRAMQQILSQPHRPTAVFCGGDIMAMGALCAADEMGLRVPQDVSLIGYDNVRNARYFTPALTTIHQPKDSLGETAFNMLLDRIVNKREEPQSIEVHPRLIERRSVADGPFRDYRR [P0ACP7]
*A* 10.4

###

# EXPERIMENT SUMMARY: total protein half-life in vivo (active degradation + dilution); higher = more stable protein
# PROTOCOL CONDITIONS: wild type E. coli NCM3722; growth: C-lim chemostat; doubling time 6 h
Assign total protein half-life in vivo to each entry below.
One number for each entry, in h.

In the examples that follow, each entry is paired with its recorded total protein half-life in vivo.
# RESIDUE STRING, PROPERTY LABEL, ASSAY RESULT
rows = [
    ("MKVMRTTVATVVAATLSMSAFSVFAEASLTGAGATFPAPVYAKWADTYQKETGNKVNYQGIGSSGGVKQIIANTVDFGASDAPLSDEKLAQEGLFQFPTVIGGVVLAVNIPGLKSGELVLDGKTLGDIYLGKIKKWDDEAIAKLNPGLKLPSQNIAVVRRADGSGTSFVFTSYLAKVNEEWKNNVGTGSTVKWPIGLGGKGNDGIAAFVQRLPGAIGYVEYAYAKQNNLAYTKLISADGKPVSPTEENFANAAKGADWSKTFAQDLTNQKGEDAWPITSTTFILIHKDQKKPEQGTEVLKFFDWAYKTGAKQANDLDYASLPDSVVEQVRAAWKTNIKDSSGKPLY [P0AG82]", "total protein half-life in vivo", 6.04),
    ("MKKAKILSGVLLLCFSSPLISQAATLDVRGGYRSGSHAYETRLKVSEGWQNGWWASMESNTWNTIHDNKKENAALNDVQVEVNYAIKLDDQWTVRPGMLTHFSSNGTRYGPYVKLSWDATKDLNFGIRYRYDWKAYRQQDLSGDMSRDNVHRWDGYVTYHINSDFTFAWQTTLYSKQNDYRYANHKKWATENAFVLQYHMTPDITPYIEYDYLDRQGVYNGRDNLSENSYRIGVSFKL", "total protein half-life in vivo", 6.86),
]

Next sequence, total protein half-life in vivo to be filled in.
*Q* Output total protein half-life in vivo of `MKKTAAIISACMLTFALSACSGSNYVMHTNDGRTIVSDGKPQTDNDTGMISYKDANGNKQQINRTDVKEMVELDQ`
*A* 5.25

###

# EXPERIMENT SUMMARY: total protein half-life in vivo (active degradation + dilution); higher = more stable protein
# PROTOCOL CONDITIONS: E. coli NCM3722 delta-hslV; growth: N-lim chemostat; doubling time 6 h
Assign total protein half-life in vivo to each entry below.
Give bare numbers, in h.

In the examples that follow, each entry is paired with its recorded total protein half-life in vivo.
# RESIDUE STRING, ASSAY RESULT
rows = [
    ("MTITSLDGYRWLKNDIIRGNFQPDEKLRMSLLTSRYALGVGPLREALSQLVAERLVTVVNQKGYRVASMSEQELLDIFDARANMEAMLVSLAIARGGDEWEADVLAKAHLLSKLEACDASEKMLDEWDLRHQAFHTAIVAGCGSHYLLQMRERLFDLAARYRFIWLRRTVLSVEMLEDKHDQHQTLTAAVLARDTARASELMRQHLLTPIPIIQQAMAGN", 2.11),
    ("MATTHLDVCAVVPAAGFGRRMQTECPKQYLSIGNQTILEHSVHALLAHPRVKRVVIAISPGDSRFAQLPLANHPQITVVDGGDERADSVLAGLKAAGDAQWVLVHDAARPCLHQDDLARLLALSETSRTGGILAAPVRDTMKRAEPGKNAIAHTVDRNGLWHALTPQFFPRELLHDCLTRALNEGATITDEASALEYCGFHPQLVEGRADNIKVTRPEDLALAEFYLTRTIHQENT", 5.2),
]

Each sequence below has a reported value. Please supply its total protein half-life in vivo.
1. MEQRRLASTEWVDIVNEENEVIAQASREQMRAQCLRHRATYIVVHDGMGKILVQRRTETKDFLPGMLDATAGGVVQADEQLLESARREAEEELGIAGVPFAEHGQFYFEDKNCRVWGALFSCVSHGPFALQEDEVSEVCWLTPEEITARCDEFTPDSLKALALWMKRNAKNEAVETETAE
2. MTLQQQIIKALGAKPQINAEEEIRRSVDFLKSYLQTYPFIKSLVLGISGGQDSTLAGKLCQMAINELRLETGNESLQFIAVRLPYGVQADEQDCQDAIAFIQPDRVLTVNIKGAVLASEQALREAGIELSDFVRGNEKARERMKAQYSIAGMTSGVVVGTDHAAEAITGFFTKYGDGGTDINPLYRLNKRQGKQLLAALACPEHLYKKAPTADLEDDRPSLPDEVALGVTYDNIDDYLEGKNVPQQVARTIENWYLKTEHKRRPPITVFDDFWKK
3. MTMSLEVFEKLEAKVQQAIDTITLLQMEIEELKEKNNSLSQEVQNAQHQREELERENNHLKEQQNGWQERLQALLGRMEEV [P0AF36]
4. MIHSSVKRWGNSPAVRIPATLMQALNLNIDDEVKIDLVDGKLIIEPVRKEPVFTLAELVNDITPENLHENIDWGEPKDKEVW [P0AE72]
5. MLIRVEIPIDAPGIDALLRRSFESDAEAKLVHDLREDGFLTLGLVATDDEGQVIGYVAFSPVDVQGEDLQWVGMAPLAVDEKYRGQGLARQLVYEGLDSLNEFGYAAVVTLGDPALYSRFGFELAAHHDLRCRWPGTESAFQVHRLADDALNGVTGLVEYHEHFNRF
6. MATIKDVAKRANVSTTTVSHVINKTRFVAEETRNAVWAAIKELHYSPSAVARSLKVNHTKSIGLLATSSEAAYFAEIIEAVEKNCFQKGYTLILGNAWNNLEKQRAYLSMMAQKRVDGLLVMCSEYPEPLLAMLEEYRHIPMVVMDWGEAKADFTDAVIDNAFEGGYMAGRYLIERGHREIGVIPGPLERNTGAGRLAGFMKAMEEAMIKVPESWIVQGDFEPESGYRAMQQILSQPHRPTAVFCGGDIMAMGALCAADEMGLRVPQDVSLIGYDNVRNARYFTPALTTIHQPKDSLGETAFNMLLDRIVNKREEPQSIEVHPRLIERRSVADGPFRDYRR [P0ACP7]
7. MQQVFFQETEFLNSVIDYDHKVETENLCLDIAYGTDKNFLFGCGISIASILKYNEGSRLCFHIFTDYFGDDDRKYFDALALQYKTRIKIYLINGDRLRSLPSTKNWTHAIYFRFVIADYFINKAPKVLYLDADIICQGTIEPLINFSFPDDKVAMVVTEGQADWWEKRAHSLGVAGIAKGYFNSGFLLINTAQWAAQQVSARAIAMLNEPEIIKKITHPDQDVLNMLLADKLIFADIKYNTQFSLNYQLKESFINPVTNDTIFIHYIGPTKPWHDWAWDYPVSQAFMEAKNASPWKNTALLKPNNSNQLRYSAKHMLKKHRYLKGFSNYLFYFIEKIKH

*A*
[2.3, 4.91, 3.23, 2.17, 4.22, 4.54, 5.66]

Each sequence below has a reported value. Please supply its total protein half-life in vivo.
1. MHCPFCFAVDTKVIDSRLVGEGSSVRRRRQCLVCNERFTTFEVAELVMPRVVKSNDVREPFNEEKLRSGMLRALEKRPVSSDDVEMAINHIKSQLRATGEREVPSKMIGNLVMEQLKKLDKVAYIRFASVYRSFEDIKEFGEEIARLED [P0A8D0]
2. MIKQRTLKRIVQATGVGLHTGKKVTLTLRPAPANTGVIYRRTDLNPPVDFPADAKSVRDTMLCTCLVNEHDVRISTVEHLNAALAGLGIDNIVIEVNAPEIPIMDGSAAPFVYLLLDAGIDELNCAKKFVRIKETVRVEDGDKWAEFKPYNGFSLDFTIDFNHPAIDSSNQRYAMNFSADAFMRQISRARTFGFMRDIEYLQSRGLCLGGSFDCAIVVDDYRVLNEDGLRFEDEFVRHKMLDAIGDLFMCGHNIIGAFTAYKSGHALNNKLLQAVLAKQEAWEYVTFQDDAELPLAFKAPSAVLA [P0A725]
3. MPLLDIRNLTIEFKTGDEWVKAVDRVSMTLTEGEIRGLVGESGSGKSLIAKAICGVNKDNWRVTADRMRFDDIDLLRLSARERRKLVGHNVSMIFQEPQSCLDPSERVGRQLMQNIPAWTYKGRWWQRFGWRKRRAIELLHRVGIKDHKDAMRSFPYELTEGECQKVMIAIALANQPRLLIADEPTNSMEPTTQAQIFRLLTRLNQNSNTTILLISHDLQMLSQWADKINVLYCGQTVETAPSKELVTMPHHPYTQALIRAIPDFGSAMPHKSRLNTLPGAIPLLEQLPIGCRLGPRCPYAQRECIVTPRLTGAKNHLYACHFPLNMEKE [P0AAH4]

*A*
4.36
0.979
5.68
